Molecular target: T1, His-tagged, full-length PCSK9 (human, UniProt Q8NBP7 31-692)
T1 construct: secreted PCSK9 is autocatalytically cleaved into prodomain and catalytic domain + CRD (from S153), which stay associated; also called His-PCSK9; proprotein convertase subtilisin/kexin type 9; not shown: His tag
T1 sequence (Q8NBP7 31-692 limits assumed): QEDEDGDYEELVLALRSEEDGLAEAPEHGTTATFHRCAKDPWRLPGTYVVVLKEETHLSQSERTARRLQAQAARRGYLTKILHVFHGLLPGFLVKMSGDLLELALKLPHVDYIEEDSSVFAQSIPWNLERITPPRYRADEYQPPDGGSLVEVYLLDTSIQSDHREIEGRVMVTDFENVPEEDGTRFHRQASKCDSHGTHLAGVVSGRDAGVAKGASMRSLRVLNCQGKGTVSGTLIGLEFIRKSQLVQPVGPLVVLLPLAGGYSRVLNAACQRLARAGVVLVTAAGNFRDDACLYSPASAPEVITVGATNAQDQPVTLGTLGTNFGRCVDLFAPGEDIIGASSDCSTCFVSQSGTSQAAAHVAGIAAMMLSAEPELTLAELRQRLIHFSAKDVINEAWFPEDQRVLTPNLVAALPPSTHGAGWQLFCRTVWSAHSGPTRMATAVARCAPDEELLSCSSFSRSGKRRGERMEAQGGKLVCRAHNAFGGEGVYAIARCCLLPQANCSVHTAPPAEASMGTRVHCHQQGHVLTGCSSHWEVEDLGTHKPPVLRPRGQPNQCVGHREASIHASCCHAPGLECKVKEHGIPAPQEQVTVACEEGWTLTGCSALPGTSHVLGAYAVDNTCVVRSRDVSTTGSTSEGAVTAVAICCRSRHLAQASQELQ
Assay: TR-FRET competition (PCSK9/EGF(A) assay); competitor EGF(A)-Fc;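 note: proximity signal from anti-His APC on PCSK9 paired with anti-Fc europium on the Fc ligand, read as normalized TR-FRET ratio across compound dilutions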
Bridge positions count the residues as written; N and C are the ends. Square brackets hold non-standard residues; d marks the D form.
reported metric: IC50

What does the data say about its IC50? Entry: Ac-CRLPWNL[dQ]RIGLPC-NH2 (disulfide 1-14; SMILES CC[C@H](C)[C@@H]1NC(=O)[C@H](CCCNC(=N)N)NC(=O)[C@@H](CCC(N)=O)NC(=O)[C@H](CC(C)C)NC(=O)[C@H](CC(N)=O)NC(=O)[C@H](Cc2c[nH]c3ccccc23)NC(=O)[C@@H]2CCCN2C(=O)[C@H](CC(C)C)NC(=O)[C@H](CCCNC(=N)N)NC(=O)[C@@H](NC(C)=O)CSSC[C@@H](C(N)=O)NC(=O)[C@@H]2CCCN2C(=O)[C@H](CC(C)C)NC(=O)CNC1=O) [Compound 103 (Ac-CRLPWNLqRIGLPC-NH2)] > 50 µM

Data provenance is patent US20200283478A1.
